Biological target: T1, human GPC3-His protein (human, UniProt P51654 25-559, limits assumed)
T1 construct: also called human GPC3 protein; not shown: His tag
Experiment: SPR, antibody captured on Protein A chip, human GPC3-His injected, 1:1 Langmuir model;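 note: flow cell at 25 °C, antigen injected for 240 s at five twofold dilutions starting at 200 nM, dissociation followed up to 600 s, double-referenced sensorgrams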
readout_name: kon (M⁻¹ s⁻¹)
Supply the numeric figure in M⁻¹ s⁻¹, leaving out any unit text.

Use these answered entries as a reference point.
binder	readout_name	recorded_number
hAb007LH1L1c (antibody, human IgG1, V domains shown, Humanized F3.81.19) VH: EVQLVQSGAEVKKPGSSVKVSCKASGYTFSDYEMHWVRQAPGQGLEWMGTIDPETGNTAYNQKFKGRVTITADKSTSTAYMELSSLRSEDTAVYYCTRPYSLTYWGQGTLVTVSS VL: DIVMTQTPLSLPVTPGEPASISCRSSQSFVHSNADTYLQWYLQKPGQSPQLLIYKVSNRFSGVPDRFSGSGSGTDFTLKISRVEAEDVGVYYCFQGSHVPYTFGQGTKLEIK	kon	92700
hAb007LH2L1b (antibody, human IgG1, V domains shown, Humanized F3.81.19) VH: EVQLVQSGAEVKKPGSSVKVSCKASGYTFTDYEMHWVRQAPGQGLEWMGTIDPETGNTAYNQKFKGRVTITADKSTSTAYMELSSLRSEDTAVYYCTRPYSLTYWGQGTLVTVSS VL: DIVMTQTPLSLPVTPGEPASISCRSSQSFVHSNRDTYLQWYLQKPGQSPQLLIYKVSNRFSGVPDRFSGSGSGTDFTLKISRVEAEDVGVYYCFQGSHVPYTFGQGTKLEIK	kon	88000
hAb003LH1L1b (antibody, human IgG1, V domains shown, Humanized F2.154.1) VH: EVQLVQSGAEVKKPGSSVKVSCKASGYTFSDYEMHWVRQAPGQGLEWMGTIDPETGNTAYTQKFMDRVTITADKSTSTAYMELSSLRSEDTAVYYCTRGYSFTYWGQGTLVTVSS VL: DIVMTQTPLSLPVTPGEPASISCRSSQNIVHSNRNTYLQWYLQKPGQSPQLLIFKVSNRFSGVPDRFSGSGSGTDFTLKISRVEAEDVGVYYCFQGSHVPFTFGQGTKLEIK	kon	246000
hAb003LH2L1b (antibody, human IgG1, V domains shown, Humanized F2.154.1) VH: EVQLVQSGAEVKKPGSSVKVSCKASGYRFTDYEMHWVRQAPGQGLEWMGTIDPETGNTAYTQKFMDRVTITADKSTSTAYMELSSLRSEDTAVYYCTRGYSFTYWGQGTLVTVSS VL: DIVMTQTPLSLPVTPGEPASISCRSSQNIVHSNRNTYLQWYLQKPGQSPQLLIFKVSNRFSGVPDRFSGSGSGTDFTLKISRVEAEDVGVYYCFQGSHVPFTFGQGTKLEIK	kon	240000
hAb006LH2L1b (antibody, human IgG1, V domains shown, Humanized F3.38.7) VH: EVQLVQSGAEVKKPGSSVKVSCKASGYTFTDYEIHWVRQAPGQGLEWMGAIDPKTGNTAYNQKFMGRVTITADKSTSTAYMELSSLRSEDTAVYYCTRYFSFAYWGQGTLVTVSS VL: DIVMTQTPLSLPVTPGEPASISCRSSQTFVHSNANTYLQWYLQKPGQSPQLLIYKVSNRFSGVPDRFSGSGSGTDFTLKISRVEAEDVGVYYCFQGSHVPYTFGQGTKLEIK	kon	138000

The record that follows has no kon shown yet.
## Task Give the measured kon of hAb005LH2L1b (antibody, human IgG1, V domains shown, Humanized F3.54.12) VH: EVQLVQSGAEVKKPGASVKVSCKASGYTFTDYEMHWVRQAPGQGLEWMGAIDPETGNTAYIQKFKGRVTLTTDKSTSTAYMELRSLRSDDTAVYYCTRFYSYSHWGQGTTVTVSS VL: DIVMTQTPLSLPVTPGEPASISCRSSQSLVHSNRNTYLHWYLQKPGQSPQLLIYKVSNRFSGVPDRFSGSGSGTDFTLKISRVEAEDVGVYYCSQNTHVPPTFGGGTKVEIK .
## Result 271000
